Please respond with reported minimum inhibitory concentration for every item in the list.
System: Mannheimia haemolytica
Protocol Notes: minimum inhibitory concentration (MIC)
Details: isolate (source animal id): 121

Please state, for each entry, its recorded minimum inhibitory concentration.
1. CC1(C)S[C@@H]2[C@H](NC(=O)Cc3ccccc3)C(=O)N2[C@H]1C(=O)O [Penicillin]
2. CC[C@H]1OC(=O)C[C@@H](O)[C@H](C)[C@@H](O[C@@H]2O[C@H](C)[C@@H](O)[C@H](N(C)C)[C@H]2O)[C@@H](CCN2C[C@H](C)C[C@H](C)C2)C[C@@H](C)C(=O)/C=C/C(C)=C/[C@@H]1CO[C@@H]1O[C@H](C)[C@@H](O)[C@@H](OC)[C@H]1OC [Tilmicosin]
3. NC[C@@H]1O[C@H](O[C@H]2[C@@H](O)[C@H](O[C@@H]3[C@@H](O)[C@H](N)C[C@H](N)[C@H]3O[C@H]3O[C@H](CN)[C@@H](O)[C@H](O)[C@H]3N)O[C@@H]2CO)[C@H](N)[C@@H](O)[C@@H]1O [Neomycin]

> 8 µg/mL
> 16 µg/mL
> 32 µg/mL

###

Test system: Mannheimia haemolytica
Protocol Notes: minimum inhibitory concentration (MIC)
Details: isolate (source animal id): 55
Please respond with reported minimum inhibitory concentration for every item in the list.
Answers are plain numbers, in µg/mL.

CN[C@@H]1[C@H](O)[C@H](NC)[C@H]2O[C@@]3(O)C(=O)C[C@@H](C)O[C@H]3O[C@@H]2[C@H]1O : 32

Write down measured minimum inhibitory concentration (Mannheimia haemolytica) for this molecule. CC[C@H]1OC(=O)C[C@@H](O)[C@H](C)[C@@H](O[C@@H]2O[C@H](C)[C@@H](O)[C@H](N(C)C)[C@H]2O)[C@@H](CCN2C[C@H](C)C[C@H](C)C2)C[C@@H](C)C(=O)/C=C/C(C)=C/[C@@H]1CO[C@@H]1O[C@H](C)[C@@H](O)[C@@H](OC)[C@H]1OC
4

###

Tested on: Histophilus somni
Protocol Notes: minimum inhibitory concentration (MIC)
Details: isolate (source animal id): 88
Please respond with reported minimum inhibitory concentration for every item in the list.

CC1(C)S[C@@H]2[C@H](NC(=O)[C@H](N)c3ccccc3)C(=O)N2[C@H]1C(=O)O : ≤ 0.25 µg/mL

Please state, for each entry, its recorded minimum inhibitory concentration.
1. CO/N=C(\C(=O)N[C@@H]1C(=O)N2C(C(=O)O)=C(CSC(=O)c3ccco3)CS[C@H]12)c1csc(N)n1
2. COc1cc(Cc2cnc(N)nc2N)cc(OC)c1OC.Cc1cc(NS(=O)(=O)c2ccc(N)cc2)no1

≤ 0.25 µg/mL
> 2 µg/mL

###

Please respond with reported minimum inhibitory concentration for every item in the list.
System: Mannheimia haemolytica
Protocol Notes: minimum inhibitory concentration (MIC)
Details: isolate (source animal id): 49

Please review the entries below; each comes with its answer.
CC[C@H]1OC(=O)C[C@@H](O)[C@H](C)[C@@H](O[C@@H]2O[C@H](C)[C@@H](O)[C@H](N(C)C)[C@H]2O)[C@@H](CCN2C[C@H](C)C[C@H](C)C2)C[C@@H](C)C(=O)/C=C/C(C)=C/[C@@H]1CO[C@@H]1O[C@H](C)[C@@H](O)[C@@H](OC)[C@H]1OC : > 16 µg/mL
NC[C@@H]1O[C@H](O[C@H]2[C@@H](O)[C@H](O[C@@H]3[C@@H](O)[C@H](N)C[C@H](N)[C@H]3O[C@H]3O[C@H](CN)[C@@H](O)[C@H](O)[C@H]3N)O[C@@H]2CO)[C@H](N)[C@@H](O)[C@@H]1O : > 32 µg/mL

Check the records and state minimum inhibitory concentration for COc1cc(Cc2cnc(N)nc2N)cc(OC)c1OC.Cc1cc(NS(=O)(=O)c2ccc(N)cc2)no1
≤ 2 µg/mL

###

Tested on: Escherichia coli
Protocol Notes: minimum inhibitory concentration (MIC)
Details: isolate (source animal id): 135
Please respond with reported minimum inhibitory concentration for every item in the list.

Please review the entries below; each comes with its answer.
COc1cc(NS(=O)(=O)c2ccc(N)cc2)nc(OC)n1 : ≤ 256 µg/mL
CNC(C)C1CCC(N)C(OC2C(N)CC(N)C(OC3OCC(C)(O)C(NC)C3O)C2O)O1 (stereo not drawn) : ≤ 1 µg/mL

Check the records and state minimum inhibitory concentration for CC1(C)S[C@@H]2[C@H](NC(=O)Cc3ccccc3)C(=O)N2[C@H]1C(=O)O
> 8 µg/mL

###

Tested on: Pasteurella multocida
Protocol Notes: minimum inhibitory concentration (MIC)
Details: isolate (source animal id): 315
Measured Parameter: minimum inhibitory concentration

CCC[C@@H]1C[C@@H](C(=O)N[C@@H]([C@H]2O[C@H](SC)[C@H](O)[C@@H](O)[C@H]2O)[C@H](C)Cl)N(C)C1 : > 16 µg/mL

Please state, for each entry, its recorded minimum inhibitory concentration.
1. NC[C@@H]1O[C@H](O[C@H]2[C@@H](O)[C@H](O[C@@H]3[C@@H](O)[C@H](N)C[C@H](N)[C@H]3O[C@H]3O[C@H](CN)[C@@H](O)[C@H](O)[C@H]3N)O[C@@H]2CO)[C@H](N)[C@@H](O)[C@@H]1O
2. CN(C)[C@@H]1C(O)=C(C(N)=O)C(=O)[C@@]2(O)C(O)=C3C(=O)c4c(O)cccc4[C@@](C)(O)[C@H]3C[C@@H]12

1: > 32 µg/mL; 2: > 8 µg/mL

###

System: Mannheimia haemolytica
Protocol Notes: minimum inhibitory concentration (MIC)
Details: isolate (source animal id): 55
Measured Parameter: minimum inhibitory concentration

Please review the entries below; each comes with its answer.
CC1(C)S[C@@H]2[C@H](NC(=O)Cc3ccccc3)C(=O)N2[C@H]1C(=O)O : ≤ 0.12 µg/mL
CCCN1C[C@H](C)[C@@H](O)[C@](C)(O)[C@@H](CC)OC(=O)[C@H](C)[C@@H](O[C@H]2C[C@@](C)(OC)[C@@H](O)[C@H](C)O2)[C@H](C)[C@@H](O[C@@H]2O[C@H](C)C[C@H](N(C)C)[C@H]2O)[C@](C)(O)C[C@H]1C : ≤ 1 µg/mL

Check the records and state minimum inhibitory concentration for CN(C)[C@@H]1C(O)=C(C(N)=O)C(=O)[C@@]2(O)C(O)=C3C(=O)c4c(O)cccc4[C@@](C)(O)[C@H]3C[C@@H]12
> 8 µg/mL
